study-target: T1, human CD3 E&D complex protein (Sino Biological Inc., CT026H0323H) (human, UniProt P07766 23-126; P04234 22-105)
T1 construct: bought heterodimer; also called human CD3 protein (CT026H0323H)
T1 sequence (P07766 23-126, chain 1 of 2): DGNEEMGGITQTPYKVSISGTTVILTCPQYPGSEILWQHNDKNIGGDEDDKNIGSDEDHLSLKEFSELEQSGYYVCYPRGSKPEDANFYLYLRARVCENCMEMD
T1 sequence (P04234 22-105, chain 2 of 2): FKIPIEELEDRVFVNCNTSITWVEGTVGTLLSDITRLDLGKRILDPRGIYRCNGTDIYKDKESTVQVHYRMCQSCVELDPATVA
assay-name: BLI, antibody on sensor
Reported koff values follow for various binders
Enter your answer as a number in s⁻¹; do not include the unit.

binder: hzsp34.17 (antibody, human IgG1, lambda, L234A L235A, V domains shown, IgG1 L234A L235A, lambda) VH: EVQLVESGGGLVQPGGSLKLSCAASGFTFNTYAMNWVRQASGKGLEWVGRIRSKYNNYATYYADSVKDRFTISRDDSKNTLYLQMNSLKTEDTAVYYCARHGNFGNSYVSWFAYWGQGTTVTVSS VL: QAVVTQEPSLTVSPGGTVTLTCRSSTGAVTTSNYANWVQQKPGQAPRGLIGGTNKRAPGVPARFSGSLLGGKAALTLLGAQPEDEAEYYCALWYSNLWVFGQGTKLTVLG
property-label: koff
obs-value: 0.00206

Just so you know, measured koff for hzsp34.25 (antibody, human IgG1, lambda, L234A L235A, V domains shown, IgG1 L234A L235A, lambda) VH: EVQLVESGGGLVQPGGSLKLSCAASGFTFNTYAMNWVRQASGKGLEWVARIRSKYNNYATYYADSVKDRFTISRDDSKSTLYLQMNSLKTEDTAVYYCARHGNFGQSYVSWFAYWGQGTTVTVSS VL: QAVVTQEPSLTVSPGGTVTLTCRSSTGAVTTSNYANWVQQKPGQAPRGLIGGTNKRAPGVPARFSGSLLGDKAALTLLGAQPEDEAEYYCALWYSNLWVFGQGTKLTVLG came out at 0.00273

# binder hzsp34.44 (antibody, human IgG1, kappa, L234A L235A, V domains shown, IgG1 L234A L235A, kappa) VH: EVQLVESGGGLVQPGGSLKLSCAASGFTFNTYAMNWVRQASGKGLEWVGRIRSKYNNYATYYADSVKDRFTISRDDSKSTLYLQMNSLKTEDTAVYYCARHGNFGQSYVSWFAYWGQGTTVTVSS VL: EIVMTQSPATLSVSPGERATLSCRSSTGAVTTSNYANWVQQKPGQAPRGLIGGTNKRAPGVPARFSGSGSGDEFTLTISSLQSEDFAVYYCALWYSNLWVFGQGTKLTVLR ; its koff = 0.00581

For reference, reported koff for hzsp34.37 (antibody, human IgG1, kappa, L234A L235A, V domains shown, IgG1 L234A L235A, kappa) VH: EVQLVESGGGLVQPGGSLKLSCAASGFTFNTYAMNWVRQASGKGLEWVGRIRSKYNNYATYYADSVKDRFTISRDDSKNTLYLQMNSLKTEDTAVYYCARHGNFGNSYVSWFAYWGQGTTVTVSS VL: EIVMTQSPATLSVSPGERATLSCRSSTGAVTTSNYANWVQQKPGQAPRGLIGGTNKRAPGVPARFSGSGSGTEFTLTISSLQSEDFAVYYCALWYSNLWVFGQGTKLTVLR stands at 0.00399
